Data provenance is PubChem BioAssay.

- assayed system: Calmodulin-1 (Homo sapiens) (UniProt P0DP23)
- method description: CALM1 binders on microarrays, EGTA buffer, profiling panel, biochemical, small-molecule microarray, Cy5-labelled CALM1 (AID 1111);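 also: labelled calmodulin applied in Tris saline Tween buffer holding calcium plus EGTA and DTT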
- test settings: Cy5-CALM1 binding fluorescence, higher = more signal
attribute measured: composite z-score
Give bare numbers.

For every item in the list below, what is its measured composite z-score?
1. [N-]=[N+]=NCc1ccccc1C[C@@]1(C(=O)N2CCCCC2)N=C(c2ccc(OCCCO)cc2)O[C@@H]1c1ccccc1
2. [N-]=[N+]=Nc1ccccc1[C@@H]1OC(c2ccc(OCCCO)cc2)=N[C@]1(Cc1ccccc1)C(=O)NCC(O)CO (some centres undefined)
3. C=C(/C(=C/C[C@H](OC(C)=O)c1cccc(OCCO)c1)c1cnc2ccccc2c1)C(C)C
4. C=CCN1C(=O)[C@@]2(O[C@@H](CCn3cc([C@H](O)c4ccccc4)nn3)[C@H]([Si](C)(C)c3ccc(OC)cc3)[C@H]2C)c2cc(N3CCC3=O)ccc21

Out:
1. 1.28
2. 2.21
3. -0.309
4. 0.249

* * *

Exercise: state measured composite z-score for each of the molecules provided.
- assayed system: Alpha-bungarotoxin (Bungarus multicinctus) (UniProt P60615)
- Sequence (P60615 whole entry, looked up): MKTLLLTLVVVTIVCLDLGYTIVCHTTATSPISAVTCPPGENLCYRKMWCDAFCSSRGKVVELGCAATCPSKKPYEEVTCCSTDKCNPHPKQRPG
- method description: alpha-bungarotoxin binders on microarray, profiling panel, artefact control for SMM control protein annotation, biochemical, small-molecule microarray, Alexa647 label, 635/667 nm fluorescence (AID 1117)
- test settings: alpha-BTX-A647 binding fluorescence, higher = more signal
Answers are plain numbers.

molecule	composite z-score
C=C(COC)C(=O)CC[C@@H](OC(=O)c1cccnc1)c1ccc(OCCO)cc1	0.661
O=C1NC(=O)C2C1C=CC(C(O)c1cccc3ccccc13)N2Nc1ccc(Cl)cc1Cl (centres undefined)	1.1
COc1cc(OC)c(C(O)C2C=CC3C(=O)N(c4ccccc4)C(=O)C3N2Nc2ccccc2)cc1Br (centres undefined)	0.665

Here are 6 molecules. What values of composite z-score were reported for them?
1. C=CCC(OC(C)=O)[C@@H]1[C@@H](N(Cc2cccc3ccccc23)C(=O)c2cccc3ccccc23)c2cc(OCCCO)ccc2N1C(=O)c1ccc(-c2ccccc2)cc1 (some centres undefined)
2. CC(=O)c1ccc(C(O)C2C=CC3C(=O)N(c4ccccc4)C(=O)C3N2Nc2ccc(C#N)cc2)cc1 (centres undefined)
3. CC(=O)NCCCC[C@@H]1NC(=O)[C@@H]2C[C@H](C(=O)NCCCC[N+](C)(C)C)[C@H](c3ccc(O)cc3)N2C1=O
4. C=CCC(OC(C)=O)[C@@H]1[C@@H](N(Cc2ccc(-c3ccccc3)cc2)C(=O)Cc2ccc(F)cc2)c2cc(OCCCO)ccc2N1C(=O)Cc1ccc(OC)cc1 (some centres undefined)
5. O=C1C2C=CC(C(O)c3ccc(F)cc3)N(n3cnnc3)C2C(=O)N1Cc1ccccc1 (centres undefined)
6. [N-]=[N+]=NCc1ccccc1[C@H]1OC(c2ccc(OCCCO)cc2)=N[C@@]1(CCS(=O)(=O)c1ccccc1)C(=O)N1CCCCC1

Out:
1. -0.574
2. 1.33
3. 1.57
4. 0.215
5. -0.39
6. 2.96

* * *

- method description: yeast growth modulation, basal conditions, primary screen, YJM789 clinical isolate, OD600, 24 h (AID 1089);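 also: growth of clinical yeast isolate S. cerevisiae YJM 789 seeded 1000 cells per well; test concentration not given here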
- test settings: S. cerevisiae YJM789 growth, higher = more signal, called active from +8 up or from −8 down
attribute measured: z-score
One number for each entry.

// each listed molecule needs a value for z-score
1. O=C1C2C=CC(C(O)c3ccc(Br)cc3)N(Nc3ccccc3F)C2C(=O)N1c1ccccc1 (centres undefined)
2. Cc1cc(C)c(C(O)C2C=CC3C(=O)NC(=O)C3N2Nc2ccc(Cl)cc2Cl)c(C)c1 (centres undefined)
3. Cc1cc(C)cc(N2C(=O)CSC2c2cccc([N+](=O)[O-])c2)c1 (centres undefined)
4. CN(C)C(=O)C1N=C(c2ccc(OCCCO)cc2)N(c2ccccc2)O1 (centres undefined)

Out:
[-1.16, -1.67, 0.0032, -0.0944]

* * *

- assayed system: Torsin-1A (Homo sapiens) (UniProt O14656)
- Sequence (O14656 whole entry, looked up): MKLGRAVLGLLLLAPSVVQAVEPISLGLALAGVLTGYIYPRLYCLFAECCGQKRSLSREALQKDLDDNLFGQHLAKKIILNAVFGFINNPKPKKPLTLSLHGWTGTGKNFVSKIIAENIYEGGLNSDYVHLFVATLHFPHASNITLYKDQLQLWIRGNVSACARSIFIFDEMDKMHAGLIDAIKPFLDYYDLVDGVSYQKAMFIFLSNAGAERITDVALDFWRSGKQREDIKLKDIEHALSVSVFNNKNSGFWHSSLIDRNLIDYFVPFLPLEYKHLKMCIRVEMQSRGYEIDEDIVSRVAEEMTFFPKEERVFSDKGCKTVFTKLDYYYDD
- method description: small-molecule binders of mutant TOR1A in lysate, primary screen, cell lysate, small-molecule microarray, COS7 lysate, 635/667 nm fluorescence (AID 1150);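 also: score pools 667 nm emission and signal to noise measuring lysate protein binding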
- test settings: COS7 hTOR1A mutant lysate, 635 nm fluorescence, higher = more signal
Classification scheme (composite z-score): b0 = under 0.1, b1 = from 0.1 up to 0.9, b2 = 0.9 and over

compound	category label
CCCCC=C[C@@H](NC(=O)c1ccc(-c2ccccc2)cc1)c1ccccc1	b1
NC(=O)NCC#Cc1ccc2c(c1)[C@]1(C(=O)N2)[C@H](C(=O)NC[C@H](O)c2ccccc2)[C@H]2C(=O)O[C@H](c3ccccc3)[C@H](c3ccccc3)N2[C@@H]1c1ccc(OCCO)cc1	b0
O=C1O[C@H](c2ccccc2)[C@H](c2ccccc2)N2[C@H]1[C@@H](C(=O)Nc1nc3ccccc3s1)[C@]1(C(=O)Nc3ccccc31)[C@H]2c1ccc(OCCO)cc1	b2
COc1ccc([Si](C)(C)[C@H]2[C@H](CC(=O)N(CCO)Cc3ccccc3)O[C@@]3(C(=O)N(Cc4cccc(N5CCOC5=O)c4)c4ccccc43)[C@@H]2C)cc1	b2
C=CCC(OC(C)=O)[C@@H]1[C@@H](N(Cc2ccc(-c3cccc(C(F)(F)F)c3)o2)C(=O)c2ccc(C)cc2)c2cc(OCCCO)ccc2N1C(=O)c1ccc2ccccc2c1 (some centres not stated)	b0

Proceed to the following item.
In: # bin lookup: classify O=C(CS)NCCCCCCNC(=O)[C@H]1C[C@H]2C(=O)N[C@@H](Cc3ccccc3)C(=O)N2[C@H]1c1ccc(O)cc1 by its composite z-score
Out: b1

* * *

- method description: anti-His antibody binders, primary screen, artefact control for SMM control protein annotation, biochemical, small-molecule microarray, 635 nm fluorescence (AID 1128);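 also: score merges feature fluorescence with signal-to-noise for each printed compound spot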
- test settings: anti-His Alexa647 antibody binding, higher = more signal
Assignment: determine reported composite z-score for the given compounds.
Give bare numbers.

compound	attribute measured	obs value
CC(C)(C)OC(=O)CC[C@]1(C(=O)NCc2ccccc2)N=C(c2ccc(OCCCO)cc2)O[C@H]1c1ccccc1CN=[N+]=[N-]	composite z-score	2
CN1C(=O)C2C=CC(C(O)c3ccccn3)N(N(c3ccccc3)c3ccccc3)C2C1=O (centres undefined)	composite z-score	0.375
COc1ccc(NC(=O)O[C@H]2[C@H](OC(=O)Nc3ccccc3)[C@@H](OC(=O)Nc3ccccc3)[C@@H](OC)O[C@@H]2CO)cc1	composite z-score	1.77
C=CCC(OC(C)=O)[C@@H]1[C@@H](N(Cc2cccc3ccccc23)C(=O)Cc2ccc(F)cc2)c2cc(OCCCO)ccc2N1C(=O)c1ccc2ccccc2n1 (some centres undefined)	composite z-score	-0.478
CN(C)CCCNC(=O)[C@@]1(c2ccc([N+](=O)[O-])cc2)CC(=O)N(CC23CC4CC(CC(C4)C2)C3)[C@@H]1c1ccc(CO)cc1I	composite z-score	1.46
NC(=O)NCC#Cc1ccc2c(c1)[C@]1(C(=O)N2)[C@H](C(=O)NC[C@H](O)c2ccccc2)[C@H]2C(=O)O[C@H](c3ccccc3)[C@H](c3ccccc3)N2[C@@H]1c1ccc(OCCO)cc1	composite z-score	-0.0888

Provide reported composite z-score for each item, in the same order as listed.
1. CCCCO[C@H]1C[C@H]2C(I)=C[C@@H]1C(=O)[C@]21CO1
2. COCCOC(=O)N1C(=O)[C@@]2(c3cc(C#Cc4ccc(OC)cc4)ccc31)[C@H](c1ccccc1OCCO)N1[C@H](c3ccccc3)[C@H](c3ccccc3)OC(=O)[C@H]1[C@@H]2C(=O)N1CCCCCCC1
3. CCOC(=O)C[C@H]1[C@H](OC(=O)c2ccc(C(=O)c3ccccc3)cc2)[C@@H](NC(=O)Cc2ccc(OC)cc2)c2cc(OCCCO)ccc2N1C(=O)c1ccccc1

Out:
1: 1.74; 2: 0.623; 3: 0.305

// for each compound in input: emit composite z-score
1. COC(=O)[C@@]1(Cc2ccc(OC)cc2)[C@H]2c3cc(C(=O)N4CCCC4)n(Cc4cccc5ccccc45)c3C[C@H]2CN1C(=O)c1ccccc1
2. COc1ccc([Si](C)(C)[C@@H]2[C@@H](CCn3cc([C@H](O)c4ccccc4)nn3)O[C@]3(C(=O)N(Cc4ccc(N5CCC5=O)cc4)c4ccccc43)[C@H]2C)cc1
3. CO[C@]12C=C(Br)[C@@H](C[C@@H]1c1cccc(C)c1)[C@@]1(CO1)C2=O

Out:
1: 1.57; 2: 0.174; 3: 0.177

Parameters: items (list). Returns: composite z-score for each item.
1. O=C1O[C@H](c2ccccc2)[C@H](c2ccccc2)N2[C@H]1[C@@H](C(=O)NC[C@H](O)c1ccccc1)[C@]1(C(=O)Nc3ccc(C#CCCO)cc31)[C@H]2c1ccc(OCCO)cc1
2. CN(C)C(=O)C1N=C(c2ccc(OCCCO)cc2)N(c2ccccc2)O1 (centres undefined)

Out:
[1.32, 1.33]

For every listed record, write down its composite z-score.
1. C[C@@H]1NC(=O)[C@@]23C(=O)N[C@@H](Cc4ccccc4)C2[C@H](C)[C@@]2(C)O[C@H]2C3/C=C/C/C=C\CNC(=O)[C@@H]2CCCN2C1=O (some centres undefined)
2. C=C(/C(=C/C[C@H](OC(C)=O)c1cccc(OCCO)c1)c1cnc2ccccc2c1)C(C)C
3. Cc1ccc(S[C@]2(C(=O)O)CC(=O)N(Cc3cc(C(F)(F)F)cc(C(F)(F)F)c3)[C@@H]2c2ccc(CO)cc2)cc1
4. CC1CC/C=C\[C@H]2OC34C=CCN(C(C)C)C(=O)[C@H]3N(CCCCCCO)C(=O)[C@@H]4C2C(=O)O1 (some centres undefined)
5. COC(=O)[C@@]1(Cc2ccccc2)[C@@H]2C(=CC(=O)[C@H]2CC(=O)C(=O)N(C)C)CN1C(=O)c1ccccc1
6. OCCCC1=CC(c2ccc(CN3CCCC3)cc2)N(Cc2sc3ccccc3c2Cl)CC1 (centres undefined)
7. CC(C)C[C@@H]1NC(=O)[C@@H]2C[C@H](C(=O)NCCCCN(C)C)[C@H](c3cccc(OCCO)c3)N2C1=O

Out:
0.104
-0.373
-1.45
-0.641
2.15
2.68
-0.421
